# Test system: wild-type HIV IIIB
# Assay remarks: MT-2 cell assay, antiviral activity (MTT)
# Format: cell-based, HIV-1
# Cond: Human immunodeficiency virus 1, IIIB, MT2; live HIV-1, human MT-2 T-cell line; read-out: IC50, HIV-1 inhibition in MT-2 cell assay
Value type: pIC50
Quick note: pIC50 means taking -log10 of the concentration in moles per liter.

Provide only the value of recorded pIC50 for C[C@@H]1CN(C(=O)c2ccccc2)CCN1C(=O)C(=O)c1c[nH]c2nccc(OCCOCCOCCOCCOCCOCCn3cc(COCCOCCOCCOCCNc4ccc([N+](=O)[O-])cc4[N+](=O)[O-])nn3)c12 [ARM-H]
5.19
